This collection of values is drawn from patent US9169223B2.

Tested on: stage II naupliar larvae of the barnacle Amphibalanus amphitrite
Assay: Toxicity assay with barnacle nauplii
Format: in vivo
Conditions: Amphibalanus amphitrite (barnacle), stage II naupliar larvae, in vivo
READOUT: LD50 (µg/mL)
Respond with the bare value in µg/mL.

CCCCC(C(=O)N1CCCCC1)c1cc(OC)ccc1OC (centres unmarked) [Compound 15.5] :: 8.66

Attention now turns to another entry.
Give reported LD50 value for CCCCC(C(=O)N1CCCCC1)c1ccccc1OC (centres unmarked) [Compound 15.3] 3.67

* * *

Catalogue of IC50 values
System: barnacle cyprids
Assay: Settlement assay with barnacle cyprids
Format: in vivo, Amphibalanus amphitrite
Conditions: Amphibalanus amphitrite, 24 h, anti-settlement, barnacle cyprids, 24 hours; concentration causing 50% reduction in settlement vs controls; read-out: ED50 (the source's name)
Respond with the bare value in µg/mL.

Example entries begin here.
CCCCC(C(=O)N1CCCCC1)c1ccc(OCC(=O)OC)cc1 (stereo not shown) :: 26.9
CCCCC(C(=O)N1CCCCC1)c1cccc(O)c1 (stereo not shown) :: 3.44

Give reported IC50 value for C=CC(=O)Oc1ccc(C(CCCC)C(=O)N2CCCCC2)cc1 (stereo not shown) 1.53

Give reported IC50 value for CCCCC(C(=O)N1CCCCC1)c1ccc(O)cc1 (stereo not shown) 0.19

Give reported IC50 value for CCCCC(C(=O)N1CCCCC1)c1ccccc1O (stereo not shown) 0.65

Give reported IC50 value for CCCCC(C(=O)N1CCCCC1)c1ccc(OC(C)=O)cc1 (stereo not shown) 0.23

Give reported IC50 value for CCCCC(C(=O)N1CCCCC1)c1cc(OC)ccc1OC (stereo not shown) 2.16

Give reported IC50 value for CCCCC(C(=O)N1CCCCC1)c1ccc(OCCOC(C)=O)cc1 (stereo not shown) 29.1

Give reported IC50 value for CCCCC(CCCC)C(=O)N1CCCCC1 [Compound 12.2, reference compound] 2

* * *

System: barnacle cyprids
Experiment: Settlement assay with barnacle cyprids
Assay type: in vivo, Amphibalanus amphitrite
Settings: Amphibalanus amphitrite, 24 h, anti-settlement, barnacle cyprids, 24 hours; concentration causing 50% reduction in settlement vs controls; read-out: ED50 (the source's name)
READOUT: log10 of IC50 (log10 of the value in mg/L)
Quick note: numbers are log10 of IC50, with mg/L as the unit.

CCCCC(C(=O)N1CCCCC1)c1ccc(OCCO)cc1 (centres unmarked) :: 0.97
CCCCC(C(=O)N1CCCCC1)c1ccc(OC)cc1 (centres unmarked) :: -0.72
C=CCCCCC(C(=O)N(C)C)c1ccc(O)cc1 (centres unmarked) :: 0.63
CCCCC(C(=O)N(C)C)c1ccc(OC)cc1 (centres unmarked) :: 0.94

Give reported log10 of IC50 value for C=CCCCCC(C(=O)N1CCCCC1)c1ccc(O)cc1 (centres unmarked) 0.33

* * *

Tested on: stage II naupliar larvae of the barnacle Amphibalanus amphitrite
Assay: Toxicity assay with barnacle nauplii
Type: in vivo
Conditions: Amphibalanus amphitrite (barnacle), stage II naupliar larvae, in vivo
Catalogue of LD50 values
Respond with the bare value in µg/mL.

Example entries begin here.
CCCCC(C(=O)N1CCCCC1)c1ccc(OCC(=O)OC)cc1 (centres unmarked) :: 24.58
CCCCC(C(=O)N1CCCCC1)c1cc(OC)cc(OC)c1 (centres unmarked) :: 8.22
CCCCC(C(=O)N1CCCCC1)c1ccc(OC)cc1OC (single isomer, unassigned) :: 33.21

Give reported LD50 value for C=CCCCCC(C(=O)N(C)C)c1ccc(O)cc1 (centres unmarked) 12.46
